Target: DENV3 NS5 MTase (dengue virus type 3)
Sequence (V9TQY8 2491-2753): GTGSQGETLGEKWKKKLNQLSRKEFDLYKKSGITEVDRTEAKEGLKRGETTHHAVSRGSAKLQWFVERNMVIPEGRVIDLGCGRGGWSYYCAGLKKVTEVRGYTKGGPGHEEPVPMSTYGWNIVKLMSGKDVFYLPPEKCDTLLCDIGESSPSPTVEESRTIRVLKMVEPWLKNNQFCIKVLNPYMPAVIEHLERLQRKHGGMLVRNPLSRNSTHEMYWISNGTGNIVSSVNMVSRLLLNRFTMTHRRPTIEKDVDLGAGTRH
quantity_name: IC50 (nM)

                              smiles_record  quantity_name  reported
0  O=c1c(O)c(-c2ccc(O)cc2)oc2c(O)c(O)cc(O)c12           IC50       770

src = paper doi:10.1101/2024.10.14.618121v2
